Value source: ChEMBL document CHEMBL1649415

Assay: Lipophilicity, log D of the compound by shake-flask technique
Assay type: physicochemical
Settings: octanol/water
This section presents compounds with their documented logD values.

smiles-data | logD
CCCCCCNC(=O)[C@H](Cc1c[nH]cn1)NC(=O)CCN.O=C(O)C(F)(F)F | -0.88
CCCNC(=O)[C@H](Cc1c[nH]cn1)NC(=O)CCN.O=C(O)C(F)(F)F | -2.72
CCOC[C@H](Cc1c[nH]cn1)NC(=O)CCN.O=C(O)C(F)(F)F | -2.17
CCCCOc1ccc(CNC(=O)[C@H](Cc2c[nH]cn2)NC(=O)CCN)cc1.O=C(O)C(F)(F)F | -0.13
